inhibition listing for selected compounds.
target: Androgen receptor (Mus musculus) (UniProt P19091); assay: Antagonist activity against mouse androgen receptor assessed as reduction of 10 nM DHT-induced transcriptional activity at 10 uM after 24 hrs by cell-based luciferase reporter gene assay relative to control
experimental-endpoint: inhibition (%)

| record-smiles | target-desc | value-observed |
| --- | --- | --- |
| CCOc1c(Cl)c(Cl)c2c(c1OCc1ccccc1)CCN(c1ccc(C(=O)Nc3cccc(C)n3)cn1)C2 | Androgen receptor (Mus musculus) (UniProt P19091) | 86.4 |
| Cc1cccnc1NC(=O)c1ccc(N2CCc3ccccc3C2)nc1 | Androgen receptor (Mus musculus) (UniProt P19091) | 64.1 |
| O=C(Nc1ccccn1)c1ccc(C(=O)N2CCc3ccccc3C2)nc1 | Androgen receptor (Mus musculus) (UniProt P19091) | 4.5 |
| COc1cccc(NC(=O)c2ccc(N3CCc4cc(OC)ccc4C3)nc2)c1 | Androgen receptor (Mus musculus) (UniProt P19091) | 95.7 |
| CCOc1ccc2c(c1OCc1ccccc1)CCN(c1ccc(C(=O)Nc3cccc(OC)c3)cn1)C2 | Androgen receptor (Mus musculus) (UniProt P19091) | 78.6 |
| COc1cc2c(c(OC)c1OC)CCN(c1ccc(C(=O)Nc3cccc(C)n3)cn1)C2 | Androgen receptor (Mus musculus) (UniProt P19091) | 89.1 |
| COc1ccc(CNC(=O)c2ccc(N3CCc4ccccc4C3)nc2)cc1 | Androgen receptor (Mus musculus) (UniProt P19091) | 58.2 |
| CCOc1ccc2c(c1)CCN(c1ccc(C(=O)Nc3cccc(C)n3)cn1)C2 | Androgen receptor (Mus musculus) (UniProt P19091) | 95.1 |
| Cc1ccnc(N(C)C(=O)c2ccc(N3CCc4ccccc4C3)nc2)c1 | Androgen receptor (Mus musculus) (UniProt P19091) | 32.5 |
| COc1ccccc1NC(=O)c1ccc(N2CCc3ccccc3C2)nc1 | Androgen receptor (Mus musculus) (UniProt P19091) | 59 |
| Cc1ccc(NC(=O)c2ccc(N3CCc4ccccc4C3)nc2)nc1 | Androgen receptor (Mus musculus) (UniProt P19091) | 90.2 |
| Cc1ccccc1NC(=O)c1ccc(N2CCc3ccccc3C2)nc1 | Androgen receptor (Mus musculus) (UniProt P19091) | 49.7 |
| COc1cccc(NC(=O)c2ccc(N3CCc4c(ccc(OC)c4OC)C3)nc2)c1 | Androgen receptor (Mus musculus) (UniProt P19091) | 96.6 |
| CCOc1ccc2c(c1)CCN(c1ccc(C(=O)Nc3cccc(OC)c3)cn1)C2 | Androgen receptor (Mus musculus) (UniProt P19091) | 95.6 |
| Cc1ccc(NC(=O)c2ccc(Cl)nc2)nc1 | Androgen receptor (Mus musculus) (UniProt P19091) | 43.1 |
| O=C(Nc1ncccn1)c1ccc(N2CCc3ccccc3C2)nc1 | Androgen receptor (Mus musculus) (UniProt P19091) | 27.5 |
| COc1ccccc1N(C)C(=O)c1ccc(N2CCc3ccccc3C2)nc1 | Androgen receptor (Mus musculus) (UniProt P19091) | 48.8 |
| COc1cc2c(cc1OC)CN(c1ccc(C(=O)Nc3cc(C)ccn3)cn1)CC2 | Androgen receptor (Mus musculus) (UniProt P19091) | 88.3 |
| COc1cccc(N(C)C(=O)c2ccc(N3CCc4ccccc4C3)nc2)c1 | Androgen receptor (Mus musculus) (UniProt P19091) | 46.4 |

###

molecular target: Androgen receptor (Mus musculus); assay: Antagonist activity against mouse androgen receptor assessed as reduction of 10 nM DHT-induced transcriptional activity at 10 uM after 24 hrs by cell-based luciferase reporter gene assay relative to control
Calls of active or inactive are those of the source. The calls are words filed in the database; no cut-off is given here.

| record-smiles | inhibition |
| --- | --- |
| CCOc1c(Cl)c(Cl)c2c(c1OCC)CCN(c1ccc(C(=O)Nc3cccc(C)n3)cn1)C2 | 30.5% |
| COc1ccc2c(c1)CCN(c1ccc(C(=O)Nc3ccc(C)cn3)cn1)C2 | 86.9% |
| Cc1cccc(NC(=O)c2ccc(N3CCN(C)CC3)nc2)n1 | inactive |
| O=C(Nc1ccccc1)c1ccc(N2CCc3ccccc3C2)nc1 | 68.9% |
| COc1cc2c(cc1OC)CN(c1ccc(C(=O)Nc3ncccc3C)cn1)CC2 | 60.9% |
| Cc1cccnc1NC(=O)c1ccc(Cl)nc1 | 0.6% |
| Cc1cccc(NC(=O)c2ccc(N3CCCCC3)nc2)n1 | 65.7% |
| Cc1cccc(NC(=O)c2ccc(N3CCc4cc(OC(C)C)ccc4C3)nc2)n1 | 95.3% |
| O=C(Nc1ccc(F)cc1)c1ccc(N2CCc3ccccc3C2)nc1 | 65.1% |
| COc1ccc(CNC(=O)c2ccc(N3CCCCC3)nc2)cc1 | 19.4% |
| COc1cc2c(cc1OC)CN(c1ccc(C(=O)Nc3cccc(C)n3)cn1)CC2 | 94.4% |
| Cc1ccnc(NC(=O)c2ccc(N3CCc4ccccc4C3)nc2)c1 | 58.6% |
| COc1cc2c(cc1OC)CN(c1ccc(C(=O)Nc3ccc(C)cn3)cn1)CC2 | 67.6% |
| O=C(Nc1ccccn1)c1ccc(Cl)nc1 | inactive |
| CCOc1ccc2c(c1OCc1ccccc1)CCN(c1ccc(C(=O)N(C)c3cccc(C)n3)cn1)C2 | 77.5% |
| O=C(Nc1ccccc1)c1ccc(C(=O)N2CCc3ccccc3C2)nc1 | 33.1% |
| O=C(Nc1nccs1)c1ccc(N2CCc3ccccc3C2)nc1 | 57.4% |
| COc1cccc(NC(=O)c2ccc(N3CCc4ccccc4C3)nc2)c1 | 80.4% |
| O=C(Nc1ccccn1)c1ccc(N2CCc3ccccc3C2)nc1 | 86.4% |
| COc1ccc2c(c1OC)CCN(c1ccc(C(=O)Nc3cccc(C)n3)cn1)C2 | 95.6% |
| CCOc1ccc2c(c1OCc1ccccc1)CCN(c1ccc(C(=O)Nc3cccc(C)n3)cn1)C2 | 92.9% |
| COc1ccc2c(c1)CCN(c1ccc(C(=O)Nc3cccc(C)n3)cn1)C2 | 94.9% |

###

molecular target: Androgen receptor (Mus musculus) (UniProt P19091); experiment: Agonist activity at mouse androgen receptor at 10 uM after 24 hrs by cell-based luciferase reporter gene assay relative to control
Entries and their measured Activity follow.

| record-smiles | Activity / % |
| --- | --- |
| O=C(Nc1ccccc1)c1ccc(C(=O)N2CCc3ccccc3C2)nc1 | 7.8 |
| COc1cc2c(cc1OC)CN(c1ccc(C(=O)Nc3cc(C)ccn3)cn1)CC2 | 2.7 |
| CCOc1ccc2c(c1OC)CCN(c1ccc(C(=O)Nc3cccc(OC)c3)cn1)C2 | 1.8 |
| O=C(Nc1ncccn1)c1ccc(N2CCc3ccccc3C2)nc1 | 9.4 |
| COc1cc2c(cc1OC)CN(c1ccc(C(=O)Nc3ccc(C)cn3)cn1)CC2 | 2.8 |
| O=C(Nc1ccccc1)c1ccc(N2CCc3ccccc3C2)nc1 | 8.7 |

###

Target: Androgen receptor (Mus musculus)
Sequence (whole entry): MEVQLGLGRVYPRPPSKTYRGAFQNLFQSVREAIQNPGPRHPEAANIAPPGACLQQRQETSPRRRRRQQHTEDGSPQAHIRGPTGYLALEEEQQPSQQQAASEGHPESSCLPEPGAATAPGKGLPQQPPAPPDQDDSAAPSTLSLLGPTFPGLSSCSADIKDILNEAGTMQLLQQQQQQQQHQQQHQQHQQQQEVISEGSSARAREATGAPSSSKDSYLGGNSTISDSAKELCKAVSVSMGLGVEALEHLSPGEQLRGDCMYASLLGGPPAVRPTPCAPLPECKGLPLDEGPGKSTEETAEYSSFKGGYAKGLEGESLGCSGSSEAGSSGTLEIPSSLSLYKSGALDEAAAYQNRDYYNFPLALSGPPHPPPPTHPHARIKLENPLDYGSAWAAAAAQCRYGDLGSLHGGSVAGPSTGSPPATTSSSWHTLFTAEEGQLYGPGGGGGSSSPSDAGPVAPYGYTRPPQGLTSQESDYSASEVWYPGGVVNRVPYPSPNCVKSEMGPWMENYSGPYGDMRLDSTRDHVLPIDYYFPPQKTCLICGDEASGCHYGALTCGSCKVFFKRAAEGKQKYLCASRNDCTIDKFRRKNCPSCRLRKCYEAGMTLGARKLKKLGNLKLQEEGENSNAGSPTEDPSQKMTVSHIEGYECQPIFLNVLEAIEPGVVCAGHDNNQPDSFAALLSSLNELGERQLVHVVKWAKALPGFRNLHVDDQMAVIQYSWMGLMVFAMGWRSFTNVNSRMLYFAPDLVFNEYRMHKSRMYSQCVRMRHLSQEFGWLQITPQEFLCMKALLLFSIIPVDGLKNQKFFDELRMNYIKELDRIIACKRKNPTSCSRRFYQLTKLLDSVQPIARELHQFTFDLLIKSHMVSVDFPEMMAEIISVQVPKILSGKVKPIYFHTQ
Assay: Antagonist activity against mouse androgen receptor assessed as reduction of 10 nM DHT-induced transcriptional activity at 10 uM after 24 hrs by cell-based luciferase reporter gene assay relative to control
The label depends only on inhibition: class 1 if it is at least 80%, class 0 if it is smaller.

| record-smiles | category-label |
| --- | --- |
| CCOc1ccc2c(c1OC)CCN(c1ccc(C(=O)Nc3cccc(C)n3)cn1)C2 | class 1 |
| Cc1ccccc1N(C)C(=O)c1ccc(N2CCc3ccccc3C2)nc1 | class 0 |
| Cc1cccc(NC(=O)c2ccc(N3CCc4cc(OCc5ccccc5)ccc4C3)nc2)n1 | class 0 |
| Cc1cccc(NC(=O)c2ccc(N3CCc4ccccc4C3)nc2)n1 | class 1 |
